MEASURED_ON: Glucocorticoid receptor (Homo sapiens) (UniProt P04150)
Sequence (P04150 whole entry, looked up): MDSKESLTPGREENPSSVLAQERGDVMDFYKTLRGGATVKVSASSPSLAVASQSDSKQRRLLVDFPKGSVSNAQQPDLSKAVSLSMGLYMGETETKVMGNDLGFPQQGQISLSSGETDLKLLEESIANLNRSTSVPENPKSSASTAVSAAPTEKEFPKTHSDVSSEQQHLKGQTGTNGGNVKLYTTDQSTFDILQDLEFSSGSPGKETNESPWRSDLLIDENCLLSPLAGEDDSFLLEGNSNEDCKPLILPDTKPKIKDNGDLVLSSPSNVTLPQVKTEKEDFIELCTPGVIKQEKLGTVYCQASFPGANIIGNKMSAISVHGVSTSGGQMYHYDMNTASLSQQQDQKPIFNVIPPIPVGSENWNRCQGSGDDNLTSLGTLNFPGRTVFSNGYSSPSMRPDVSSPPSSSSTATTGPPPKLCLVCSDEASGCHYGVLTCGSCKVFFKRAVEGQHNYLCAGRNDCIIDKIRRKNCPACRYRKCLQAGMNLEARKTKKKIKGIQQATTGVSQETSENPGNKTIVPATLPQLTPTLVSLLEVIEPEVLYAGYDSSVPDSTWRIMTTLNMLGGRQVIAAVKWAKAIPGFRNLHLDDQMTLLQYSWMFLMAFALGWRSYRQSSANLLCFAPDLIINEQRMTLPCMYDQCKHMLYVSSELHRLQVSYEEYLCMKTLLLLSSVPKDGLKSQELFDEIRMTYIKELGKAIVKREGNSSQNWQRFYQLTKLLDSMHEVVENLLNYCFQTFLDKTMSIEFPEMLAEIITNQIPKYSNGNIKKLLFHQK
PROCEDURE_TEXT: ATG_GR_TRANS: Attagene TRANS-FACTORIAL HepG2 Assay for human Glucocorticoid Receptor (GR) (AID 2282978);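 further: activators score as hits since higher reporter transcript over DMSO is fitted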
TEST_CONTEXT: HepG2 Attagene TRANS GR reporter, mRNA transcription
Records with an inconclusive call do not appear. Activity calls are given as the source filed them. How the source made its calls: active means hit-call score of the fitted dose curve at least 0.9, where 1 is the maximum; inconclusive means response in the unintended direction; inactive means score below 0.9.
Outcomes: active, inactive

O=P(O)(O)CCC(F)(F)C(F)(F)C(F)(F)C(F)(F)C(F)(F)C(F)(F)C(F)(F)C(F)(F)F ... inactive
CCC(=O)O ... inactive
C=CC(=O)OCC(CO)(COCC(COC(=O)C=C)(COC(=O)C=C)COC(=O)C=C)COC(=O)C=C ... inactive
CCc1cccc(CC)c1N(COC)C(=O)CS(=O)(=O)O ... inactive
CC(=O)Nc1ccc(S(N)(=O)=O)cc1 ... inactive
CC(C)(C)c1ccc(O)c(O)c1 ... inactive
O=C(O)C(=O)O ... inactive
FCOC(C(F)(F)F)C(F)(F)F ... inactive
FC(OC(F)(F)C(F)(F)C(F)(F)F)C(F)(F)F (stereo not drawn) ... inactive
CC1CCC(CO)CC1 (stereo not drawn) ... inactive
c1ccc2c(c1)CCC2 ... inactive
COc1cc(OC)nc(NC(=O)NS(=O)(=O)Nc2ccccc2C(=O)N(C)C)n1 ... inactive
CCc1cccc(CC)c1NC(=O)C(=O)O ... inactive
CCO[Si](C)(C)OCC ... inactive
Clc1ccc2c(Cl)ccnc2c1 ... inactive
CC(C)(C)c1ccc(CCC=O)cc1 ... inactive
c1cc[nH]c1 ... inactive
CCOC(C)=O ... inactive
Cc1cc(C(C)(C)C)c(O)c(C(C)(C)C)c1 ... active
CCC(=O)C=Cc1ccc(OC)cc1 ... inactive
C=COC(=O)C(C)(C)CCCCCC ... inactive
CC(C)c1c(C(=O)Nc2ccccc2)c(-c2ccccc2)c(-c2ccc(F)cc2)n1CC[C@@H](O)C[C@@H](O)CC(=O)O ... inactive
O=C1C=CC(=O)N1c1cccc(N2C(=O)C=CC2=O)c1 ... inactive
Oc1cccc2c(O)cccc12 ... inactive
O=C(O)CCC(F)(F)C(F)(F)C(F)(F)C(F)(F)C(F)(F)F ... inactive
CCCCCCCCC1CCC(=O)O1 (stereo not drawn) ... inactive
FC(F)(F)N1C(F)(F)C(F)(F)OC(F)(F)C1(F)F ... inactive
O=P(O)(O)CCC(F)(F)C(F)(F)C(F)(F)C(F)(F)C(F)(F)C(F)(F)F ... inactive

###

MEASURED_ON: Nuclear receptor subfamily 1 group I member 2 (Homo sapiens)
PROCEDURE_TEXT: ATG_PXR_TRANS: Attagene TRANS-FACTORIAL HepG2 Assay for human Pregnane X Receptor (PXR) (AID 2283008)
Method: ATG_TRANS is a cell-based, multiplexed-readout assay that uses HepG2, a human liver cell line, with measurements taken at 24 hours after chemical dosing in a 24-well plate.ATG_PXR_TRANS is one of 30 assay component(s) measured or calculated from the ATG_TRANS assay. […] This assay endpoint, ATG_PXR_TRANS, was analyzed in the positive analysis fitting direction relative to DMSO as the negative control and baseline of activity. […]
Records with an inconclusive call do not appear. Active and inactive are the calls of the source. The calls were made as follows: active = hit-call score of the fitted dose curve at least 0.9, where 1 is the maximum; inconclusive = response in the unintended direction; inactive = score below 0.9.
Classes used: active, inactive

COc1ccccc1NC(=O)c1cc2ccccc2cc1O ... active
Clc1ccc2c(Cl)ccnc2c1 ... active
Oc1c(Cl)ccc(Cl)c1Cl ... inactive
NNc1nc(-c2ccc([N+](=O)[O-])cc2)cs1 ... inactive
Oc1ccc(Cc2ccccc2O)cc1 ... inactive
CCCCCCCCCCCC[N+](C)(C)CCCCCCCCCCCC ... inactive
CN(C)c1ccc(C(=C2C=CC(=[N+](C)C)C=C2)c2ccccc2)cc1 ... active
CNNCc1ccc(C(=O)NC(C)C)cc1 ... inactive
COc1ccc(C#N)cc1 ... inactive
CCOC(OCC)C(=O)c1ccccc1 ... active
C[C@]12CC[C@@H]3c4ccc(O)cc4CC[C@H]3[C@@H]1CC[C@@H]2OC(=O)CCC1CCCC1 ... inactive
CCCCCCC(C)(C)C(=O)O ... inactive
O=C(F)C(F)(F)C(F)(F)C(F)(F)C(=O)F ... inactive
NC(C(F)(F)F)C(F)(F)F ... inactive

###

PROCEDURE_TEXT: CEETOX_H295R_OHPREG: CeeTox H295R High-throughput Steroidogenesis Assay for OH-Pregnenolone (OHPREG) (AID 2283434)
TEST_CONTEXT: actives raise or lower the signal
Active and inactive are the calls of the source. How the source made its calls: active means hit-call score of the fitted dose curve at least 0.9, where 1 is the maximum; inactive means score below 0.9.
Outcome codes: y for active, n for inactive

CCCCCc1ccc(O)cc1 ... n
c1cc[nH]c1 ... n
CC(C)CCOCCC(C)C ... n
O=C(NCc1ncc(C(F)(F)F)cc1Cl)c1c(Cl)cccc1Cl ... n
CCCCCC(C)OC(=O)COc1ccc(Cl)c2cccnc12 (stereo not drawn) ... n
C[C@]12CC[C@@H]3c4ccc(O)cc4CC[C@H]3[C@@H]1C[C@@H](O)[C@@H]2O ... y
Oc1cc2ccccc2cc1O ... n
CC(C)(c1ccc(Oc2ccc(N)cc2)cc1)c1ccc(Oc2ccc(N)cc2)cc1 ... y

###

PROCEDURE_TEXT: TOX21_TR_RXR_BLA_Antagonist_Followup_viability: Viability Assessment in the Tox21 Thyroid Hormone Receptor beta Retinoid X Receptor alpha (RXRa) Antagonism Beta-lactamase (BLA) Follow-Up Assay (AID 2283979)
Inconclusive results are not listed. Calls of active or inactive are those of the source. Rule for the calls: active = hit-call score of the fitted dose curve at least 0.9, where 1 is the maximum; inconclusive = response in the unintended direction; inactive = score below 0.9.
Outcome codes: active, inactive

CC(C)c1c(C(=O)Nc2ccccc2)c(-c2ccccc2)c(-c2ccc(F)cc2)n1CC[C@@H](O)C[C@@H](O)CC(=O)O ... inactive
COc1ccccc1NC(=O)c1cc2ccccc2cc1O ... active
Nc1ccn([C@@H]2O[C@H](CO)[C@@H](O)C2O)c(=O)n1 (some centres undefined) ... inactive
Nc1cc(Cl)c(-c2cc(Cl)c(N)cc2Cl)cc1Cl ... active

###

PROCEDURE_TEXT: BSK_SAg_SRB: Viability Assessment in the BioMAP Diversity Plus: SAg Assay (AID 2283096);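 further: cells read one day after compound addition; hits may be either gain or loss of signal compared with DMSO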
TEST_CONTEXT: primary human HUVEC with PBMC
The source made the active and inactive calls. How the source made its calls: active means hit-call score of the fitted dose curve at least 0.9, where 1 is the maximum; inactive means score below 0.9.
Outcome codes: active, inactive

O=C1OC2(c3ccccc31)c1cc(I)c(O)c(I)c1Oc1c2cc(I)c(O)c1I ... inactive
O=C1c2ccc(O)c(O)c2C(=O)c2c(O)ccc(O)c21 ... inactive
OCCN1CN(CCO)CN(CCO)C1 ... active
CCCCc1oc2ccccc2c1C(=O)c1cc(I)c(OCCN(CC)CC)c(I)c1 ... active
C=COC(=O)C(C)(C)CCCCCC ... active
COC1=CC(=O)C[C@@H](C)[C@]12Oc1c(Cl)c(OC)cc(OC)c1C2=O ... inactive
OCC(CO)(CBr)CBr ... inactive
O=C(NO)c1ccccc1 ... inactive
CC(C)(C)c1ccc(O)c(O)c1 ... active
Cc1cccc2c1ccc1ccccc12 ... inactive
O=C(c1ccccc1)c1ccccc1 ... inactive
Cc1[nH]nc2c1N=C(c1ccccc1Cl)c1cc([N+](=O)[O-])ccc1N2 ... active
Clc1ccc(Nc2nnc(Cc3ccncc3)c3ccccc23)cc1 ... inactive

###

MEASURED_ON: human Opioid Receptor Mu (Opiate Mu), OPRM1 (gene 4988)
PROCEDURE_TEXT: NVS_GPCR_hOpiate_mu: NovaScreen (NVS) G Protein-Coupled Receptor Assay for human Opioid Receptor Mu (Opiate Mu) (AID 2283290);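 further: hits lower bound tracer signal versus DMSO meaning displacement of the ligand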
Protocol: NVS_GPCR_hOpiate_mu is a biochemical, single-readout assay that uses extracted gene-proteins from CHO in a cell-free assay. Measurements were taken 2.5 hours after chemical dosing in a 96-well plate.NVS_GPCR_hOpiate_mu is one of one assay component(s) measured or calculated from the NVS_GPCR_hOpiate_mu assay. […] This assay endpoint, NVS_GPCR_hOpiate_mu, was analyzed in the positive analysis fitting direction relative to DMSO as the negative control and baseline of activity. […]
Results filed as inconclusive are left out. The source made the active and inactive calls. The calls were made as follows: active = hit-call score of the fitted dose curve at least 0.9, where 1 is the maximum; inconclusive = response in the unintended direction; inactive = score below 0.9.
Outcomes: Y (active), N (inactive)

CCCCCCCCCCCCCCCCCC[N+](C)(C)Cc1ccccc1 ... Y
O=C1OC2(c3ccccc31)c1cc(I)c(O)c(I)c1Oc1c2cc(I)c(O)c1I ... Y
C=CC(=C)CC/C=C(\C)CCC=C(C)C ... N
CN(C)CCOC(c1ccccc1)c1ccccc1 ... N
CC(C)(C)c1ccc(O)c(O)c1 ... Y
CN(Cc1cnc2nc(N)nc(N)c2n1)c1ccc(C(=O)N[C@@H](CCC(=O)O)C(=O)O)cc1 ... N

###

PROCEDURE_TEXT: APR_HepG2_MitoMass_72hr: Apredica 72-hour HepG2 Assay for Mitochondrial Mass (AID 2282924);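 further: MitoTracker Red CMXRos stain intensity per cell imaged as mitochondrial mass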
TEST_CONTEXT: high-content imaging, actives raise or lower the signal
Active and inactive are the calls of the source. The calls were made as follows: active = hit-call score of the fitted dose curve at least 0.9, where 1 is the maximum; inactive = score below 0.9.
Possible outcomes: active, inactive

Cc1[nH]nc2c1N=C(c1ccccc1Cl)c1cc([N+](=O)[O-])ccc1N2 ... active
CN(C)CCOC(c1ccccc1)c1ccccc1 ... inactive
CC(=O)Nc1ccc(O)cc1 ... inactive
N=C(N)c1ccc(OCCCCCOc2ccc(C(=N)N)cc2)cc1 ... active
O=C(CCCN1CCC(O)(c2ccc(Cl)cc2)CC1)c1ccc(F)cc1 ... active
CCCCCCCCCCCCOS(=O)(=O)O ... inactive
CN(Cc1cnc2nc(N)nc(N)c2n1)c1ccc(C(=O)N[C@@H](CCC(=O)O)C(=O)O)cc1 ... inactive
